Examples of compounds with documented pKi follow.
target: 72 kDa type IV collagenase (Homo sapiens); assay: Inhibition of gelatinase-A (MMP-2).
Sequence (P08253 whole entry): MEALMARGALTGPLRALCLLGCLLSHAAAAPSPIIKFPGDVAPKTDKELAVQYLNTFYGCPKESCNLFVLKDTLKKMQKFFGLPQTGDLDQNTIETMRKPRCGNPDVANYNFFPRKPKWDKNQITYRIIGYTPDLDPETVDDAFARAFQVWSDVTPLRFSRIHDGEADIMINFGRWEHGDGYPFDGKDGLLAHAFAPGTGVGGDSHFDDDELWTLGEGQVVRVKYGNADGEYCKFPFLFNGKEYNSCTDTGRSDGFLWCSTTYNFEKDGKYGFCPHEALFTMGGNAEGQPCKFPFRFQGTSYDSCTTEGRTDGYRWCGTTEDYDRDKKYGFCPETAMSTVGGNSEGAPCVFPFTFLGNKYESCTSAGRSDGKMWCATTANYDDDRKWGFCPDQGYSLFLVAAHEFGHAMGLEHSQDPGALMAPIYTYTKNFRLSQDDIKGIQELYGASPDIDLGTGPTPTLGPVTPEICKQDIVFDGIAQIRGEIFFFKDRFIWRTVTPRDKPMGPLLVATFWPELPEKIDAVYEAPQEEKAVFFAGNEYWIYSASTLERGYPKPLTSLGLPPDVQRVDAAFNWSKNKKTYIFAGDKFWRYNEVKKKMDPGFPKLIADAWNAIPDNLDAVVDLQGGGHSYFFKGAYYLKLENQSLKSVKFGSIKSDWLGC
pKi: −log10 of the molar value.

| inputSmiles | pKi |
| --- | --- |
| COC(=O)CCP(=O)(O)C[C@@H](CCc1ccccc1)C(=O)N[C@@H](CC(C)C)C(=O)Nc1ccccc1 | 5.89 |
| COc1ccc(CC[C@H](CP(=O)(O)CCCCN2C(=O)c3ccccc3C2=O)C(=O)N[C@@H](CC(C)C)C(=O)Nc2ccccc2)cc1 | 7.92 |
| CC(C)C[C@H](NC(=O)[C@H](CCc1ccccc1)CP(C)(=O)O)C(=O)Nc1ccccc1 | 6.24 |
| CC(C)C[C@H](NC(=O)[C@H](CCc1ccccc1)CP(=O)(O)CCCCN1C(=O)c2ccccc2C1=O)C(=O)Nc1ccccc1 | 7.70 |
| COc1cccc(CC[C@H](CP(=O)(O)CCCCN2C(=O)c3ccccc3C2=O)C(=O)N[C@@H](CC(C)C)C(=O)Nc2ccccc2)c1 | 8.68 |
| CC(=O)N1CCC[C@H]1C(=O)NCCCCP(=O)(O)C[C@@H](CCc1ccccc1)C(=O)N[C@@H](CC(C)C)C(=O)Nc1ccccc1 | 8.21 |

----------
biological target: 72 kDa type IV collagenase (Homo sapiens); experiment: Inhibition of gelatinase-A (MMP-2) at a concentration of 1 uM
Sequence (P08253 110-660 limits assumed): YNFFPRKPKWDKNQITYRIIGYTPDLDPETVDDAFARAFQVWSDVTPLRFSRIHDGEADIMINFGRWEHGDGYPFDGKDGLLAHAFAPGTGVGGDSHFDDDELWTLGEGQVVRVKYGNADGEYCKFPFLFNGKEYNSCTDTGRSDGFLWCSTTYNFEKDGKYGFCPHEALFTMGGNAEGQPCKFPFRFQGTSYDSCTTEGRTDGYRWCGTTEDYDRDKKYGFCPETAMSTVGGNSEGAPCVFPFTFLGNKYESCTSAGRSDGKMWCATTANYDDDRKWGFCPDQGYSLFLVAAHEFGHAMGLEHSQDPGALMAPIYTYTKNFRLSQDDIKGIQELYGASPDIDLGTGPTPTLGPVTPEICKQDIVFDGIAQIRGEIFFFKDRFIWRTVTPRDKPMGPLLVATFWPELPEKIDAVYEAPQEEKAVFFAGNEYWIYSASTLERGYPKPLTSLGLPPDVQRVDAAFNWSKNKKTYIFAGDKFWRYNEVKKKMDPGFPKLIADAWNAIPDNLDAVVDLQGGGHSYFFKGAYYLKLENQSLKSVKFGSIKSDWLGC
metricName: inhibition (%)

| inputSmiles | observedResult |
| --- | --- |
| CC(C)C[C@H](NC(=O)[C@H](CCc1ccccc1)CP(=O)(O)CCCCNC(=O)NCc1ccccc1)C(=O)Nc1ccccc1 | 96 |
| CC(C)C[C@H](NC(=O)[C@H](CCc1ccccc1)CP(=O)(O)CCCCN)C(=O)Nc1ccccc1 | 13 |
| CC(C)C[C@H](NC(=O)[C@H](CCc1ccccc1)CP(=O)(O)CCC(=O)Nc1ccccc1)C(=O)Nc1ccccc1 | 60 |
| CC(C)C[C@H](NC(=O)[C@H](CCc1ccccc1)CP(=O)(O)CCCCNC(=O)Nc1ccccc1)C(=O)Nc1ccccc1 | 85 |

----------
molecular target: Stromelysin-1 (Homo sapiens, UniProt P08254); test: Inhibition of stromelysin-1 (MMP-3).
Sequence (P08254 whole entry): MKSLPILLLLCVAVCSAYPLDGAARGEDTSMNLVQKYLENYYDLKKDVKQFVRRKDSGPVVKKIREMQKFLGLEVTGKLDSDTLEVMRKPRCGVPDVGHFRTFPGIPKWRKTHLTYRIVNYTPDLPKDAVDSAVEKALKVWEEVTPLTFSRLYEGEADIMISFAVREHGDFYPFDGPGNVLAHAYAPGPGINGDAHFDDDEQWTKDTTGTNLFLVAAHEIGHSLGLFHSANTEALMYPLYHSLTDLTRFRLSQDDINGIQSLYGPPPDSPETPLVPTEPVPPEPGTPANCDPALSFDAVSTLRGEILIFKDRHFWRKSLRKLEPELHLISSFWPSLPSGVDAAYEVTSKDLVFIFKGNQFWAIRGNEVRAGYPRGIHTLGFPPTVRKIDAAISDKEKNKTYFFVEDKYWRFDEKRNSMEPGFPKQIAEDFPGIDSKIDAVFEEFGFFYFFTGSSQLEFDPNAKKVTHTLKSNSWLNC
Listing of recorded log10(Ki) by entry.
metricName: log10(Ki) (log10 of the value in µM)

| inputSmiles | log10(Ki) |
| --- | --- |
| COc1cccc(CC[C@H](CP(=O)(O)CCCCN2C(=O)c3ccccc3C2=O)C(=O)N[C@@H](CC(C)C)C(=O)Nc2ccccc2)c1 | -2.60 |
| CC(C)C[C@H](NC(=O)[C@H](CCc1ccccc1)CP(=O)(O)CCCCNC(=O)Oc1ccccc1)C(=O)Nc1ccccc1 | -1.25 |
| CC(C)C[C@H](NC(=O)[C@H](CCc1ccccc1)CP(=O)(O)CCCCNC(=O)[C@H]1CCCN1C(=O)c1ccccc1)C(=O)Nc1ccccc1 | -1.62 |
| CC(C)C[C@H](NC(=O)[C@H](CCc1ccccc1)CP(=O)(O)CCCCNC(=O)c1ccccc1)C(=O)Nc1ccccc1 | -2.24 |
| CC(C)C[C@H](NC(=O)[C@H](CCc1ccccc1)CP(=O)(O)CNC(=O)CN1C(=O)c2ccccc2C1=O)C(=O)Nc1ccccc1 | -0.39 |
| CC(C)C[C@H](NC(=O)[C@H](CCc1ccccc1)CP(=O)(O)CCCCNC(=O)[C@@H]1CCCN1C(=O)c1ccccc1)C(=O)Nc1ccccc1 | -1.89 |
| COC(=O)CCP(=O)(O)C[C@@H](CCc1ccccc1)C(=O)N[C@@H](CC(C)C)C(=O)Nc1ccccc1 | -0.28 |
| CCOC(=O)NCCCCP(=O)(O)C[C@@H](CCc1ccccc1)C(=O)N[C@@H](CC(C)C)C(=O)Nc1ccccc1 | -1.80 |
| CC(C)C[C@H](NC(=O)[C@H](CCc1ccccc1)CP(=O)(O)CCCCN)C(=O)Nc1ccccc1 | 0.57 |

Source listed as ChEMBL document CHEMBL1128968.
